System: MiaPaca human pancreatic carcinoma cells
Experiment: Alamar Blue cell proliferation assay, MiaPaCa
Type: cell-based
Conditions: MIA PaCa-2
Measured IC50 by item

substance_smiles	IC50
Cc1ccccc1Nc1nc2cc(C(=O)O)ccc2n2cccc12	> 10 µM
CN(c1ccccc1F)c1nc2cc(-c3nnn[nH]3)ccc2n2cccc12	> 10 µM
O=C(O)c1ccc2c(c1)nc(NCCn1cccc1)c1cccn12	> 10 µM
CN(c1ccccc1)c1nc2cc(-c3nnn[nH]3)ccc2n2cccc12	> 10 µM
NC(=O)c1cc(F)cc(Nc2nc3cc(C(=O)O)ccc3n3cccc23)c1	> 10 µM
N#Cc1cccc(Nc2nc3cc(C(=O)O)ccc3n3cccc23)c1	> 10 µM
CN(c1cccc(Cl)c1)c1nc2cc(-c3nnn[nH]3)ccc2n2cccc12	> 10 µM
Clc1cccc(-c2nc3cc(-c4nnn[nH]4)ccc3n3cccc23)c1	> 10 µM
O=C(O)c1ccc2c(c1)nc(Nc1cc(F)cc(Cl)c1)c1cccn12	> 10 µM
COc1cccc(Nc2nc3cc(C(=O)O)ccc3n3cccc23)c1	> 10 µM
Clc1cccc(Nc2nc3cc(-c4nnn[nH]4)ccc3n3cccc23)c1	9.37 µM
FC(F)(F)c1cccc(Nc2nc3cc(-c4nnn[nH]4)ccc3n3cccc23)c1	> 10 µM
Cc1ccccc1Nc1nc2cc(-c3nnn[nH]3)ccc2n2cccc12	> 10 µM
CN(c1cccc(Cl)c1)c1nc2cc(C(=O)O)ccc2n2cccc12	> 10 µM
Fc1cc(F)cc(Nc2nc3cc(-c4nnn[nH]4)ccc3n3cccc23)c1	> 10 µM
Fc1ccc(Nc2nc3cc(-c4nnn[nH]4)ccc3n3cccc23)cc1Cl	> 10 µM
O=C(O)c1ccc2c(c1)nc(Nc1cccc(F)c1)c1cccn12	> 10 µM
Fc1cccc(Nc2nc3cc(-c4nnn[nH]4)ccc3n3cccc23)c1	> 10 µM
CN(C)CCNc1nc2cc(C#N)ccc2n2cccc12	1.29 µM
Clc1ccc(Nc2nc3cc(-c4nnn[nH]4)ccc3n3cccc23)cc1	> 10 µM
O=C(O)c1ccc2c(c1)nc(Nc1cccc(Cl)c1)c1cccn12	8.92 µM
O=C(O)c1ccc2c(c1)nc(NCC(F)(F)F)c1cccn12	> 10 µM
O=C(O)c1ccc2c(c1)nc(Nc1ccc3ncccc3c1)c1cccn12	> 10 µM
Clc1ccccc1Nc1nc2cc(-c3nnn[nH]3)ccc2n2cccc12	> 10 µM
O=C(O)c1ccc2c(c1)nc(Nc1ccc(F)c(Cl)c1)c1cccn12	> 10 µM
N#Cc1ccc2c(c1)nc(NCCN1CCCC1)c1cccn12	1.24 µM
